These data points were gathered from paper PMC3796545.

target: ATX1 AXH (residues A567-K689 of human ATX1) (human); test: ITC; 0.041 mM AXH in the cell, 0.410 mM peptide in the syringe, 21 aliquots; 25°C; 50 mM Tris-HCl pH 7, 50 mM NaCl, 2 mM TCEP; single-site model; averages of three measurements
Sequence (P54253 567-689): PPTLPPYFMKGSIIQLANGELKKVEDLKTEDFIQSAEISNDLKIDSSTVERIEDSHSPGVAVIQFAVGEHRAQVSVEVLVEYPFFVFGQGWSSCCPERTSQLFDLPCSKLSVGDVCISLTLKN
measurement.name: Kd (µM)

I = VFPWHSLVPFLAPSQ [L-CICp]
II = PWHSLVPFLAPSQ [CICp]
### Prompt I'd appreciate it if you could identify which of I and II has the greater Kd. # answer = label of selected item
### Response II
